Catalogue of IC50 readings, one per entry.
Molecular target: GST tagged IRAK-4 (Homo sapiens (Human))
Sequence (Q9NWZ3 whole entry): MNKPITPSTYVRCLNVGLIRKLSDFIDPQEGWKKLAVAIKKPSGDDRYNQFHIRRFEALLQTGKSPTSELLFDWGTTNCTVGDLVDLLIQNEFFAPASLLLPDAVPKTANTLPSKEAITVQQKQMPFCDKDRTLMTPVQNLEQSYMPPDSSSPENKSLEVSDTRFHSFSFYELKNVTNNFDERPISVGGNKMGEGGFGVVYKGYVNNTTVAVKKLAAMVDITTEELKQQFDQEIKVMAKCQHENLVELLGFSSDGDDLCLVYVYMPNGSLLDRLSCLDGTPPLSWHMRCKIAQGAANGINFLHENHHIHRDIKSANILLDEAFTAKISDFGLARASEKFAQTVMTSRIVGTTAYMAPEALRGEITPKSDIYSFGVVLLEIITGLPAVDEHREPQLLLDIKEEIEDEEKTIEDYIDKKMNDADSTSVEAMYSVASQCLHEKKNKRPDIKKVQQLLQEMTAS
Experiment: IRAK-4 Kinase Assay (IMAP fluorescence polarization)
Format: biochemical
Conditions: 100 μM ATP, 30 minutes at 25° C.; μM

Exercise: Recorded IC50 for COc1ncc(CN2CC(c3cc(NC(=O)c4cnn5cccnc45)n(-c4ccc(C)cc4)n3)C2)cn1 , please?
Key: < 1 µM

Exercise: Requested field: IC50. Item: Cc1cccc(-n2nc(C3CCN(S(=O)(=O)C4CC4)CC3)cc2NC(=O)c2cnn3cccnc23)c1
Key: < 1 µM

Exercise: Suppose we examine the molecule Cc1ccc(-n2nc(C3CCCNC3)cc2NC(=O)c2cnn3cccnc23)cc1 (centres unmarked) ; what IC50 value has been reported?
Key: < 1 µM

Exercise: # query: IC50 of entry Cc1ccc(-n2nc(C3CCS(=O)(=O)CC3)cc2NC(=O)c2cnn3cccnc23)cc1
Key: < 1 µM

====

Molecular target: GST tagged IRAK-4 (Homo sapiens (Human))
Assay: IRAK-4 Kinase Assay (IMAP fluorescence polarization)
Type: biochemical
Settings: 100 μM ATP, 30 minutes at 25° C.; μM
reportedEndpoint: IC50

Reference set (2 entries):
molecule	reportedEndpoint	observedResult
Cc1ccc(-n2nc(C3CCN(C4CN(C(=O)OCCF)C4)CC3)cc2NC(=O)c2cnn3cccnc23)cc1 [Example 241]	IC50	< 1 µM
Cc1ccc(-n2nc(C3CCN(S(=O)(=O)c4ccc5ccccc5c4)CC3)cc2NC(=O)c2cnn3cccnc23)cc1 [Example 377]	IC50	> 1 µM

Exercise: Which measured IC50 value corresponds to CCN(CC)S(=O)(=O)c1ccc(-c2cc(NC(=O)c3cnn4cccnc34)n(-c3ccc(C)cc3)n2)c(C)c1 [Example 340] ?
Key: < 1 µM

Exercise: // IC50 lookup, key: Cc1ccc(-n2nc(-c3cncc(F)c3)cc2NC(=O)c2cnn3cccnc23)cc1 [Example 136]
Key: > 1 µM

Exercise: Can you share its IC50? I mean this molecule: Cc1ccc(-n2nc(C3CCN(S(=O)(=O)CCC(F)(F)F)CC3)cc2NC(=O)c2cnn3cccnc23)cc1 [Example 363]
Key: < 1 µM

Exercise: Field request: IC50 | item: Cc1ccc(-n2nc(C3CCC(O)CC3)cc2NC(=O)c2cnn3cccnc23)cc1 (stereo not drawn) [Example 6]
Key: < 1 µM

Exercise: I'd like to know its IC50. The molecule in question is Cc1ccc(-n2nc(C3CCN(S(=O)(=O)c4c(Cl)cccc4Cl)CC3)cc2NC(=O)c2cnn3cccnc23)cc1 [Example 390]
Key: > 1 µM

Exercise: What value of IC50 has been recorded for this entry: Cc1ccc(-n2nc(C3CN(Cc4ccn[nH]4)C3)cc2NC(=O)c2cnn3cccnc23)cc1 [Example 306]
Key: < 1 µM

====

Each record here notes measured IC50.
Target: GST tagged IRAK-4 (Homo sapiens (Human))
Test: IRAK-4 Kinase Assay (IMAP fluorescence polarization)
Format: biochemical
Conditions: 100 μM ATP, 30 minutes at 25° C.; μM

Solved cases below.
Cc1ccc(-n2nc(C3CCN(S(=O)(=O)c4cnn(C)c4)CC3)cc2NC(=O)c2cnn3cccnc23)cc1 < 1 µM
Cc1cccc(-n2nc(C3CCNCC3)cc2NC(=O)c2cnn3cccnc23)c1 < 1 µM
COC(=O)N1CCC(c2cc(NC(=O)c3cnn4cccnc34)n(-c3ccc(OC)cc3)n2)CC1 < 1 µM
Cc1ccc(-n2nc(C3CCN(C4CCN(C)CC4)CC3)cc2NC(=O)c2cnn3cccnc23)cc1 > 1 µM

Exercise: GET /values?readout=IC50&system=GST tagged IRAK-4 (Homo sapiens (Human))&item= Cc1ccc(-n2nc(C3CCNCC3)cc2NC(=O)c2cnn3cccnc23)cn1
Key: > 1 µM

Where do the numbers come from? From patent US9169260B2.
